Tested Target: dopamine D1 receptor (Rattus norvegicus, UniProt P18901)
Sequence (P18901 whole entry): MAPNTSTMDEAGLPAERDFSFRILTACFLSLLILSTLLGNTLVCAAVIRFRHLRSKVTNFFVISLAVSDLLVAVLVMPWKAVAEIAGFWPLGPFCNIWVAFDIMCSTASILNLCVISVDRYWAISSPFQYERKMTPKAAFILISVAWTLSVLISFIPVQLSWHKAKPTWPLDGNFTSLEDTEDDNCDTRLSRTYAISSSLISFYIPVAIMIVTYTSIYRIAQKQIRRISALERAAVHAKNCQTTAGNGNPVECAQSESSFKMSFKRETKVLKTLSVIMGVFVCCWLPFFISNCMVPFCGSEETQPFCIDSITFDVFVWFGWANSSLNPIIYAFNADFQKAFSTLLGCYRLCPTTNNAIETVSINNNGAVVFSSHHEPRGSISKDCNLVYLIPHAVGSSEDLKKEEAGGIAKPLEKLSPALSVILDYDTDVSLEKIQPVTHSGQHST
Protocol Notes: biochemical
Condition Context: read-out: Ki, dopamine stimulated adenylate cyclase
Counter-ions that a name gives are not always drawn.
The entries below are paired with their reported Ki.
The figure you give is taken to be in nM; do not add the unit.

QUERY: Supply measured Ki of CN1CCc2cc(Cl)c(O)cc2C(c2ccc(Cl)c3c2OCCC3)C1 (racemic) in your reply.
RESULT: 10

QUERY: Supply measured Ki of CN1CCc2cc(Cl)c(O)cc2C(c2cccc3ccoc23)C1 (racemic) in your reply.
RESULT: 6

Others:
QUERY: Supply measured Ki of CN1CCc2cc(Cl)c(O)cc2C(c2ccc3c(c2)CCCC3)C1 (racemic) [Example No. 5j, hydrochloride] in your reply.
RESULT: 21
